Experiment: reduction of polyQ htt aggregates in cells – imaging, exon1htt(103Q)mCFP cells, high-content imaging, primary screen (AID 483);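 note: compound exposure lasted 3 days before fixation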
Settings: exon1htt(103Q)mCFP cell line, aggregate imaging, at 2 µM; hits give high values
Can you tell me inhibition of aggregation for the items I'm about to list?
Give bare numbers, in %.

Respectfully, I request inhibition of aggregation for each entry included below.
1. CCCCOC(=O)CN1C(=O)c2ccc(C(=O)OCCCC)cc2C1=O
2. Cn1c(SCc2nc3ccccc3c(=O)[nH]2)nnc1-c1ccco1
3. CCOC(=O)C1=C(C)NC2=C(C(=O)CC(C)(C)C2)C1c1ccc(N(C)C)cc1 (stereo unspecified)
4. CCCCOC(=O)CNc1nnc(SCC(=O)OCC)[nH]c1=O
5. CCCS(=O)(=O)NCCc1cc2cc(C)c(C)cc2[nH]c1=O
6. CCCOc1ccc(OCCSc2ncccn2)cc1
7. CN(CCNS(=O)(=O)c1ccc2c(c1)oc(=O)n2C)Cc1ccccc1

OUTPUT:
-4.5
11.8
26.1
9.9
4.2
24.7
-7.2

Respectfully, I request inhibition of aggregation for each entry included below.
1. CCN1CCN(c2ncnc3c2oc2nc(C)c4c(c23)CC(C)(C)OC4)CC1
2. CCOc1ccccc1NC(=O)CC1Nc2cc(C)c(C)cc2NC1=O (stereo unspecified)
3. Cc1ccc(N2C(=O)c3oc4ccccc4c(=O)c3C2c2cccc(O)c2)nc1 (stereo unspecified)
4. C=CCn1c(SCC(=O)Nc2ccccc2OC)nnc1-c1ccccn1

OUTPUT:
1. 0.7
2. 23.2
3. -1.9
4. 32.8

---

Can you tell me inhibition for the items I'm about to list?
Assay: endothelial E-selectin expression blockers – imaging, HUVEC, immunofluorescence, MLSMR starter and 10KST1 sets, primary screen (AID 487);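 note: signal is fraction of cell area covered by stained E-selectin grains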
Settings: HUVEC TNFalpha-induced E-selectin immunofluorescence imaging, at 2 µM; hits give high values
Active and inactive are the calls of the source.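 The calls were made as follows: active = visually confirmed hit in the image check and inhibition above 20%; inconclusive = visually confirmed hit but inhibition not above 20%; inactive = no visual hit in the image check.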

O=C(CSc1nc2c(c(=O)n1-c1ccc(F)cc1)SCC2)NCC1CCCO1 (configuration not stated) ... -8.7% (inactive)
Cn1c(=O)c(C(=O)Nc2cccnc2)c(O)c2ccccc21 ... -74% (inactive)
O=C1NC(Cc2c[nH]c3ccccc23)C(=O)N1CCOc1ccccc1 (configuration not stated) ... -14.9% (inactive)
Cc1cc2c(cc1C)C(=O)NC(C)(C)C2 ... -20.1% (inactive)
O=S(=O)(NCc1cn2ccsc2n1)c1ccc2c(c1)OCCO2 ... 51.6% (inactive)
O=C(CCn1c(=O)oc2ccccc21)N1CCCCCC1 ... -26.2% (inactive)

Respectfully, I request inhibition for each entry included below.
1. CCOC(=O)C1CCN(C(=O)COc2ccc(Cl)cc2Cl)CC1
2. Cc1cccc(-n2ncc3c(N4CCC5(CC4)OCCO5)ncnc32)c1
3. Fc1ccc(-c2csc3nnc(SCc4cccnc4)n23)cc1
4. c1ccn2c(SCc3cn4ccsc4n3)nnc2c1
5. Cc1cc(N2CCN(c3ccccn3)CC2)n2nc(C)nc2n1

OUTPUT:
["4.3% (inactive)", "-15.1% (inactive)", "-30% (inactive)", "-20.5% (inactive)", "-4.2% (inactive)"]

INPUT: Return reported inhibition. Input compound: COC1CCCCC1Nc1cccc(SC)c1 (configuration not stated)
OUTPUT: -65.5% (inactive)

---

Assay: inhibitors of TNFa-induced NFkB p65 translocation, primary screen, imaging, HUVEC, MLSMR starter and 10KST1 sets (AID 438);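 note: compound added about 3h40 before a 20 min TNFalpha stimulation; signal is the nuclear over cytoplasmic p65 intensity ratio per well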
Conditions: HUVEC TNFa-induced p65 nuclear translocation; at 2 µM, hits give high values, 0% TNFa-plus-vehicle, 100% no-TNFa wells
Metric Name: inhibition (%)
Give bare numbers, in %.

Worked set:
CCn1c(Cc2ccccc2)nnc1SCC(=O)Nc1ccc(N2CCOCC2)c(Cl)c1 ... 0.3
O=C(CN1CCN(c2nc(-c3ccc(F)cc3)cs2)CC1)NCc1ccc2c(c1)OCO2 ... 9.9
CC1=CC2=C(OC1N(C)C)c1cccc3cccc(c13)C2=O (stereo unspecified) ... 23.4
O=S(=O)(c1ccc(N2CCN(c3ccc(F)cc3)CC2)cc1)N1CCCC1 ... 14
Clc1cccc(N2CCN(Cc3nc(-c4ccccc4)no3)CC2)c1 ... -1.1
O=C(NCN1CCCCC1)c1cnccn1 ... -9.2
S=c1[nH]ncn1-c1ccccn1 ... -11
Cc1c(C(=O)N2CCCC2)sc(NC(=O)c2cccs2)c1C#N ... 17.1
Cc1cc(N2CCN(c3ccccn3)CC2)n2nc(C)nc2n1 ... 3.5
Cc1ccc(-c2cc(C(F)(F)F)n3nc(C(=O)N4CCCC4)cc3n2)cc1 ... 5.5

Please turn your attention to the following entry.
INPUT: Return reported inhibition. Input compound: O=C(NCC1CCCO1)C1CCC(CNS(=O)(=O)c2ccccc2)CC1 (stereo unspecified)
OUTPUT: 8.1
